// data source = ChEMBL document CHEMBL3596110

test system: UDP-N-acetylglucosamine--peptide N-acetylglucosaminyltransferase 110 kDa subunit (Homo sapiens) (UniProt O15294)
Sequence (O15294 whole entry): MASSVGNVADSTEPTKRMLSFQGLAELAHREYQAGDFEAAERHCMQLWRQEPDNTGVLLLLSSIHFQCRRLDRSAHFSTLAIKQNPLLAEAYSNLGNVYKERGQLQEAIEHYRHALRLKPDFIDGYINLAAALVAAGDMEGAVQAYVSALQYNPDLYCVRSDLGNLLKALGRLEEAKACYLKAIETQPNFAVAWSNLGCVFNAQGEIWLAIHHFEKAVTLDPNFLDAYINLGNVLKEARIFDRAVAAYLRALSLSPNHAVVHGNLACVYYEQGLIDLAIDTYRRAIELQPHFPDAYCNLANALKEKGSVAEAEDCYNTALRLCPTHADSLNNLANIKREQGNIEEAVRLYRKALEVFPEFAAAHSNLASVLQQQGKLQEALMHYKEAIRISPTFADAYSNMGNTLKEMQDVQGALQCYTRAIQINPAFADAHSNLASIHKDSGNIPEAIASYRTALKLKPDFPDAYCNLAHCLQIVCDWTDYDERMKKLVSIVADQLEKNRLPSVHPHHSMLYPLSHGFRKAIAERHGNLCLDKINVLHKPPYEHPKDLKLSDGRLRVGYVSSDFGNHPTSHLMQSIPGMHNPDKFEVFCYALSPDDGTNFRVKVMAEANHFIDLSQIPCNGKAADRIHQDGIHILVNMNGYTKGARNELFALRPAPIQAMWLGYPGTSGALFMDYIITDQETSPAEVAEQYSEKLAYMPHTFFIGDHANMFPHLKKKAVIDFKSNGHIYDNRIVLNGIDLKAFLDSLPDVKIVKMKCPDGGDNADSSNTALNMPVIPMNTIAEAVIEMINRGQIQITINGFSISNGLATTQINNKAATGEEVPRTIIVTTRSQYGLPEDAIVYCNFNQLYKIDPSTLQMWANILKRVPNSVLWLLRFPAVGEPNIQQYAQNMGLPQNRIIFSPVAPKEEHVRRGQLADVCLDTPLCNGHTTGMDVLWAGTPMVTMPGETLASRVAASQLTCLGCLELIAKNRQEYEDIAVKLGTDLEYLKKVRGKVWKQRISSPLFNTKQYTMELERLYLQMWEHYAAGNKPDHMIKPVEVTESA
protocol: Inhibition of human OGT using [3H]-UDP-GlcNAc as donor and recombinant nup2 as acceptor at 50 uM by liquid scintillation counting analysis
assay metric: inhibition (%)

Some compounds with known inhibition results, for comparison:
// query Returns the measured inhibition for the input compound. Input: O=c1ccn([C@@H]2O[C@H](Cn3cc(-c4cccc(Br)n4)nn3)[C@@H](O)[C@H]2O)c(=O)[nH]1
// result 15.5

// query Returns the measured inhibition for the input compound. Input: O=C(N[C@@H]1O[C@H](CO)[C@@H](O)[C@H](O)[C@H]1O)c1cccc(Cc2cn(C[C@H]3O[C@@H](n4ccc(=O)[nH]c4=O)[C@H](O)[C@@H]3O)nn2)n1
// result 18

// query Returns the measured inhibition for the input compound. Input: O=C(NC[C@H]1O[C@@H](n2ccc(=O)[nH]c2=O)[C@H](O)[C@@H]1O)c1cccc(Br)n1
// result 7.6

// query Returns the measured inhibition for the input compound. Input: O=C(NC[C@H]1O[C@@H](n2ccc(=O)[nH]c2=O)[C@H](O)[C@@H]1O)c1cccc(-c2cn([C@@H]3O[C@H](CO)[C@@H](O)[C@H](O)[C@H]3O)nn2)n1
// result 4.2

// query Returns the measured inhibition for the input compound. Input: CC(=O)N[C@@H]1[C@@H](O)[C@H](O)[C@@H](CO)O[C@H]1n1cc(-c2cccc(C(=O)NC[C@H]3O[C@@H](n4ccc(=O)[nH]c4=O)[C@H](O)[C@@H]3O)n2)nn1
// result 9.7

A = O=c1ccn([C@@H]2O[C@H](Cn3cc(-c4cccc(-c5cn([C@@H]6O[C@H](CO)[C@@H](O)[C@H](O)[C@H]6O)nn5)n4)nn3)[C@@H](O)[C@H]2O)c(=O)[nH]1
B = CC(=O)N[C@@H]1[C@@H](O)[C@H](O)[C@@H](CO)O[C@H]1NC(=O)c1cccc(Cc2cn(C[C@H]3O[C@@H](n4ccc(=O)[nH]c4=O)[C@H](O)[C@@H]3O)nn2)n1
C = CC(=O)N[C@@H]1[C@@H](O)[C@H](O)[C@@H](CO)O[C@H]1n1cc(-c2cccc(-c3cn(C[C@H]4O[C@@H](n5ccc(=O)[nH]c5=O)[C@H](O)[C@@H]4O)nn3)n2)nn1
// query Returns the items ordered by inhibition, from maximum to minimum. In plain terms: list the labels in the order you were asked to.
// result A, C, B
(A: 13.3%, C: 6.7%, B: 3%)
